Molecular target: human BChE (hBChE), human plasmatic butyrylcholinesterase (Homo sapiens)
Sequence (P06276 29-602): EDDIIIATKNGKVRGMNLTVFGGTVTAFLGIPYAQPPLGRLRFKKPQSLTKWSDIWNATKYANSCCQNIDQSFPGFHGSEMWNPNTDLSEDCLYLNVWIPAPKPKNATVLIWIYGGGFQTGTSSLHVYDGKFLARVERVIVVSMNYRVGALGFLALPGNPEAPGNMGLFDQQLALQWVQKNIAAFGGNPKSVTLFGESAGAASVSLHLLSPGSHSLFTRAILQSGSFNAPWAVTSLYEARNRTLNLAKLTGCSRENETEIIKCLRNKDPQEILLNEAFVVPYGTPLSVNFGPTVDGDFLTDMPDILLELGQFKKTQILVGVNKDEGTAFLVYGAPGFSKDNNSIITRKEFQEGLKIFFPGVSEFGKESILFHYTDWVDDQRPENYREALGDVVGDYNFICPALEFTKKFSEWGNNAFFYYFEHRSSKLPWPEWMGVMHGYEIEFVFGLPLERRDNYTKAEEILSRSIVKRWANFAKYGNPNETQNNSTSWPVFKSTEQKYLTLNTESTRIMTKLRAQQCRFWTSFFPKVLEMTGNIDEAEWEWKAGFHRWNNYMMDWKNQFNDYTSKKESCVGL
Test: hBChE inhibition, modified Ellman's method
Type: biochemical
Experimental: Three series of tacrine-squaramide homodimers were tested for their inhibitory potential against human AChE (hAChE) and human BChE (hBChE) enzymes using modified spectrophotometric method of Ellman et al.. THA, 6-Cl-THA and 7-MEOTA were used as reference compounds. […] Tested compounds were preincubated for 5 min. […] The activity was determined by measuring the increase in absorbance at 412 for AChE/BChE at 37 °C at 2 min intervals - using a Multi-mode microplate reader Synergy 2 (Winooski, VT, USA). […]
Parameter: pIC50. Scope: all listed entries.
// pIC50: -log10(molar conc.)

test_smiles: O=c1c(NCCNc2c3c(nc4ccccc24)CCCC3)c(NCCNc2c3c(nc4ccccc24)CCCC3)c1=O
tgt: human BChE (hBChE), human plasmatic butyrylcholinesterase (Homo sapiens)
numeric_value: 7.21
//
test_smiles: COc1ccc2nc3c(c(NCCCCCNc4c(NCCCCCNc5c6c(nc7ccc(OC)cc57)CCCC6)c(=O)c4=O)c2c1)CCCC3
tgt: human BChE (hBChE), human plasmatic butyrylcholinesterase (Homo sapiens)
numeric_value: 6.17
//
test_smiles: O=c1c(NCCCNc2c3c(nc4cc(Cl)ccc24)CCCC3)c(NCCCNc2c3c(nc4cc(Cl)ccc24)CCCC3)c1=O
tgt: human BChE (hBChE), human plasmatic butyrylcholinesterase (Homo sapiens)
numeric_value: 6.96

# evaluate next
Query: Give pIC50 only, for O=c1c(NCCCCCCNc2c3c(nc4ccccc24)CCCC3)c(NCCCCCCNc2c3c(nc4ccccc24)CCCC3)c1=O , using human BChE (hBChE), human plasmatic butyrylcholinesterase (Homo sapiens) data.
Response: 7.68

====

Biological target: human BChE (hBChE), human plasmatic butyrylcholinesterase (Homo sapiens)
Assay: hBChE inhibition, modified Ellman's method
Assay type: biochemical
Conditions: mean of at least three experiments; read-out: IC50 hBChE
pIC50: −log10 of the molar value.
pIC50 vs 7: at or above is Criterion met, below is Criterion not met.

test_smiles: O=c1c(NCCCCCCCNc2c3c(nc4ccccc24)CCCC3)c(NCCCCCCCNc2c3c(nc4ccccc24)CCCC3)c1=O
class_assignment: Criterion met
--
test_smiles: COc1ccc2nc3c(c(NCCCCCCCNc4c(NCCCCCCCNc5c6c(nc7ccc(OC)cc57)CCCC6)c(=O)c4=O)c2c1)CCCC3
class_assignment: Criterion not met
--
test_smiles: O=c1c(NCCCCCCCCNc2c3c(nc4ccccc24)CCCC3)c(NCCCCCCCCNc2c3c(nc4ccccc24)CCCC3)c1=O
class_assignment: Criterion met
--
test_smiles: COc1ccc2nc3c(c(NCCCCCCCCNc4c(NCCCCCCCCNc5c6c(nc7ccc(OC)cc57)CCCC6)c(=O)c4=O)c2c1)CCCC3
class_assignment: Criterion not met
--
test_smiles: COc1ccc2nc3c(c(NCCCNc4c(NCCCNc5c6c(nc7ccc(OC)cc57)CCCC6)c(=O)c4=O)c2c1)CCCC3
class_assignment: Criterion not met

Query: Reported pIC50 reaches at least 7 for O=c1c(NCCCNc2c3c(nc4ccccc24)CCCC3)c(NCCCNc2c3c(nc4ccccc24)CCCC3)c1=O ?
Response: Criterion met

Query: Please indicate if the recorded pIC50 for O=c1c(NCCCCCCCCNc2c3c(nc4cc(Cl)ccc24)CCCC3)c(NCCCCCCCCNc2c3c(nc4cc(Cl)ccc24)CCCC3)c1=O meets or exceeds 7.
Response: Criterion not met

Query: Reported pIC50 at or above 7? COc1ccc2nc3c(c(NCCCCNc4c(NCCCCNc5c6c(nc7ccc(OC)cc57)CCCC6)c(=O)c4=O)c2c1)CCCC3
Response: Criterion not met

====

Conditions: PAMPA, PBS pH 7.4
readout_name: Pe (×10⁻⁶ cm/s)
Value expressed in ×10⁻⁶ cm/s; do not type the unit.

Field: example entries. Status: answers known.
molecule: O=c1c(NCCCNc2c3c(nc4cc(Cl)ccc24)CCCC3)c(NCCCNc2c3c(nc4cc(Cl)ccc24)CCCC3)c1=O [Compound 4b]
Pe / ×10⁻⁶ cm/s: 2.5

molecule: COc1ccc2nc3c(c(NCCCCCNc4c(NCCCCCNc5c6c(nc7ccc(OC)cc57)CCCC6)c(=O)c4=O)c2c1)CCCC3 [Compound 5d]
Pe / ×10⁻⁶ cm/s: 1.3

Then this molecule:
Query: Please list Pe recorded for the molecule O=c1c(NCCCCCCNc2c3c(nc4ccccc24)CCCC3)c(NCCCCCCNc2c3c(nc4ccccc24)CCCC3)c1=O [Compound 3e]
Response: 2.6

====

This listing pairs compounds with measured SI (selectivity index for hAChE).
Target: human AChE (hAChE), recombinant acetylcholinesterase (Homo sapiens)
Construct: made in house
Sequence (P22303 32-614): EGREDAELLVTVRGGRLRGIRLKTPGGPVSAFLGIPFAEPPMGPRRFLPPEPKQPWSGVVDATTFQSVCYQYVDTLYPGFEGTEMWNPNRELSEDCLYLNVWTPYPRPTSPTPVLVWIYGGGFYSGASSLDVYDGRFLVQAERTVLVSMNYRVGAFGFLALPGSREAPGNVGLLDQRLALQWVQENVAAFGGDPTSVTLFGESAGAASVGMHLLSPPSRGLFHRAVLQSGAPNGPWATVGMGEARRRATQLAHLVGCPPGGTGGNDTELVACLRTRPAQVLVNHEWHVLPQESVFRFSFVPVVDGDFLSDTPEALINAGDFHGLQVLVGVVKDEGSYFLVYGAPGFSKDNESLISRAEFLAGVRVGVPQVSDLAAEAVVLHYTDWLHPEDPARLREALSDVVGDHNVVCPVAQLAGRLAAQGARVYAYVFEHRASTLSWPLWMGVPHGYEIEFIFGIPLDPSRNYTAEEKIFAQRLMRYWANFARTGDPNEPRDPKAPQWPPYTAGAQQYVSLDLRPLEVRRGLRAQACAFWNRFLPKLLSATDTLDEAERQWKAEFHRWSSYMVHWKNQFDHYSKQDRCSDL
Assay: hAChE inhibition, modified Ellman's method
Type: biochemical
Conditions: ratio IC50(hBChE)/IC50(hAChE)
// no unit string in output, number only

compound: O=c1c(NCCCCNc2c3c(nc4cc(Cl)ccc24)CCCC3)c(NCCCCNc2c3c(nc4cc(Cl)ccc24)CCCC3)c1=O [Compound 4c]
SI (selectivity index for hAChE): 37

Query: Please supply the value of reported SI (selectivity index for hAChE) for the item O=c1c(NCCCCCCCNc2c3c(nc4cc(Cl)ccc24)CCCC3)c(NCCCCCCCNc2c3c(nc4cc(Cl)ccc24)CCCC3)c1=O [Compound 4f]
Response: 28

Query: Using the record for O=c1c(NCCCCCCNc2c3c(nc4ccccc24)CCCC3)c(NCCCCCCNc2c3c(nc4ccccc24)CCCC3)c1=O [Compound 3e] , state its measured SI (selectivity index for hAChE).
Response: 1.6

Query: Dear colleague, please send me the reported SI (selectivity index for hAChE) for O=c1c(NCCNc2c3c(nc4ccccc24)CCCC3)c(NCCNc2c3c(nc4ccccc24)CCCC3)c1=O [Compound 3a] when you can.
Response: 16

====

A collection of compounds and their measured IC50 at 24 h
Assay: in vitro
Conditions: human

compound: O=c1c(NCCCCCCCNc2c3c(nc4cc(Cl)ccc24)CCCC3)c(NCCCCCCCNc2c3c(nc4cc(Cl)ccc24)CCCC3)c1=O [Compound 4f]
readout_name: IC50 at 24 h
result: > 64 µM

compound: O=c1c(NCCCCCCCCNc2c3c(nc4cc(Cl)ccc24)CCCC3)c(NCCCCCCCCNc2c3c(nc4cc(Cl)ccc24)CCCC3)c1=O [Compound 4g]
readout_name: IC50 at 24 h
result: > 64 µM

Please examine the following record next.
Query: Write down IC50 at 24 h measured for item O=c1c(NCCCNc2c3c(nc4ccccc24)CCCC3)c(NCCCNc2c3c(nc4ccccc24)CCCC3)c1=O [Compound 3b]
Response: > 32 µM

====

Listing: IC50 at 24 h of selected compounds
Experiment: in vitro
Settings: human

Example results:
test_smiles: COc1ccc2nc3c(c(NCCCNc4c(NCCCNc5c6c(nc7ccc(OC)cc57)CCCC6)c(=O)c4=O)c2c1)CCCC3
IC50 at 24 h: > 64 µM
--
test_smiles: O=c1c(NCCCNc2c3c(nc4cc(Cl)ccc24)CCCC3)c(NCCCNc2c3c(nc4cc(Cl)ccc24)CCCC3)c1=O
IC50 at 24 h: > 64 µM
--
test_smiles: COc1ccc2nc3c(c(NCCCCCNc4c(NCCCCCNc5c6c(nc7ccc(OC)cc57)CCCC6)c(=O)c4=O)c2c1)CCCC3
IC50 at 24 h: 98 µM

Turning to the following compound.
Query: Provide only the value of recorded IC50 at 24 h for O=c1c(NCCCCCCNc2c3c(nc4cc(Cl)ccc24)CCCC3)c(NCCCCCCNc2c3c(nc4cc(Cl)ccc24)CCCC3)c1=O
Response: > 64 µM

====

Below: a set of entries, each annotated with reported IC50 at 24 h.
Experiment: in vitro
Conditions: human
Protocol: The human origin cell line HepG2 (ATCC, Mannassas, VA, USA) isolated from liver hepatocellular carcinoma was used to evaluate cytotoxicity of tested compounds. […] After 24-h incubation, the medium containing serially diluted substances was aspirated from each well and replaced by 100 µL of fresh medium containing MTT (0.5 mg/mL). […] The optical density of each well was measured using Synergy 2 Multi-Mode Microplate Reader (BioTek Instruments, Inc., Winooski, VT, USA) at 570 nm. […]

test_smiles: O=c1c(NCCNc2c3c(nc4ccccc24)CCCC3)c(NCCNc2c3c(nc4ccccc24)CCCC3)c1=O
IC50 at 24 h: > 256 µM

test_smiles: O=c1c(NCCCCNc2c3c(nc4cc(Cl)ccc24)CCCC3)c(NCCCCNc2c3c(nc4cc(Cl)ccc24)CCCC3)c1=O
IC50 at 24 h: > 64 µM

Now turn to the next compound.
Query: Consider the compound O=c1c(NCCCCCNc2c3c(nc4cc(Cl)ccc24)CCCC3)c(NCCCCCNc2c3c(nc4cc(Cl)ccc24)CCCC3)c1=O and give its recorded IC50 at 24 h.
Response: > 64 µM
